src = patent US20050020492A1

target: T1, human MCH-2R (human, UniProt Q969V1 1-340); assay: SPA radioligand binding assay
T1 construct: Function: 293AEQ17/MCH-2R cells; also called hMCH-2R
T1 sequence (Q969V1 whole entry): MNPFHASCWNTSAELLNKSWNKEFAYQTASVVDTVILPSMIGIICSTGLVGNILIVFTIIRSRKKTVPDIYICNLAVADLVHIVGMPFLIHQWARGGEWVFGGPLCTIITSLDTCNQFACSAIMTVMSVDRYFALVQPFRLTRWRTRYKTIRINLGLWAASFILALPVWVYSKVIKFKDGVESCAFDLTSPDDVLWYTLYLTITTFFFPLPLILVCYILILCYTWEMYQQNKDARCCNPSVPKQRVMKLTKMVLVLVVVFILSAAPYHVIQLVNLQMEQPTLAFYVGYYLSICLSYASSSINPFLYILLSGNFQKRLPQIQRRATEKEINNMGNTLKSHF
Property Name: IC50

- Binder: "XMLGRVYRPC (Ac-Arg^6 segment eliminated; Mpr, des-amino-cysteine (3-mercaptopropionic acid) at position 7 instead of Cys; C-terminal amide; disulfide ring) [SEQ. ID. NO. 15 (Δ(X^6-Cys^7), Mpr^7 analog of Ac-hMCH(6-16)-NH2)]"
  Reported Measurement: "> 3000 nM"
